The reported numbers originate from PubChem BioAssay AID2060501.

Catalogue of compounds with associated viability, T/C
Tested on: 282377-053-R-J1-PDC complex spheroids, viability;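 note: spheroids exposed to compounds for 7 days before readout; percent of vehicle DMSO control viability with 100% = untreated-like growth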
Assay: Anticancer human tumor 282377-053-R-J1-PDC patient-derived colon adenocarcinoma cell line growth inhibition [GQUAD]
Details: second compound 10 µM; first compound 0.0316 µM; hits give low values

compound: CC1COCCN1c1cc(-c2ccnn2C)c2ccnc(-c3ccn[nH]3)c2n1 (stereo not drawn) + Cc1[nH]c2ccc(F)cc2c1-c1nc2c3cccnc3c3ncccc3c2[nH]1
viability, T/C: 35.6%
//
compound: CC1COCCN1c1cc(C2(O)CC3CCC(C2)O3)c2cnn(-c3ccn[nH]3)c2n1 (stereo not drawn) + CN(C)c1ccc(Nc2c3ccc(NC(=O)CCN4CCCC4)cc3nc3cc(NC(=O)CCN4CCCC4)ccc23)cc1
viability, T/C: 93%

Fill in the blank: the reported viability, T/C of CC(C)(O)C1CCC(Nc2ccc3ncc(-c4cccc(C(F)(F)F)c4)n3n2)CC1 (stereo not drawn) + Cc1cnc(CNC(=O)c2c(=O)c3ccc(N4CCCN(C)CC4)nc3n3c2sc2ccccc23)cn1 is ____.
34.2%
